Values compiled from BigSolDB 2.1.

details: in toluene, 305.35 K

{"smiles": "Nc1cccc(N)n1", "solubility (mole fraction)": 0.00558}

###

settings: in toluene, 325.55 K

{"smiles": "Nc1cccc(N)n1", "solubility (mole fraction)": 0.0124}

###

details: in o-xylene, 329.45 K

{"smiles": "Nc1cccc(N)n1", "solubility (mole fraction)": 0.011}

###

conditions: in ethanol, 321.25 K
measured_quantity: solubility (mole fraction)

{"smiles": "Nc1cccc(N)n1", "measured_quantity": "solubility (mole fraction)", "observed_value": 0.342}

###

details: in ethylbenzene, 329.45 K
measured_quantity: solubility (mole fraction)

{"smiles": "Nc1cccc(N)n1", "observed_value": 0.00197}

###

settings: in o-xylene, 353.45 K
measured_quantity: solubility (mole fraction)

{"smiles": "Nc1cccc(N)n1", "observed_value": 0.024}

###

conditions: in toluene, 301.45 K
measured_quantity: solubility (mole fraction)

{"smiles": "Nc1cccc(N)n1", "observed_value": 0.0051}

###

conditions: in toluene, 293.65 K

{"smiles": "Nc1cccc(N)n1", "solubility (mole fraction)": 0.00375}

###

settings: in isopropanol, 281.15 K

{"smiles": "Nc1cccc(N)n1", "solubility (mole fraction)": 0.0401}

###

conditions: in ethylbenzene, 285.55 K

{"smiles": "Nc1cccc(N)n1", "solubility (mole fraction)": 0.00035}

###

conditions: in ethanol, 266.95 K
measured_quantity: solubility (mole fraction)

{"smiles": "Nc1cccc(N)n1", "measured_quantity": "solubility (mole fraction)", "observed_value": 0.0751}

###

settings: in ethylbenzene, 313.15 K

{"smiles": "Nc1cccc(N)n1", "solubility (mole fraction)": 0.00113}

###

details: in toluene, 337.25 K

{"smiles": "Nc1cccc(N)n1", "solubility (mole fraction)": 0.0164}

###

details: in ethylbenzene, 346.25 K

{"smiles": "Nc1cccc(N)n1", "solubility (mole fraction)": 0.0033}

###

details: in toluene, 341.15 K
measured_quantity: solubility (mole fraction)

{"smiles": "Nc1cccc(N)n1", "observed_value": 0.0207}

###

details: in ethanol, 281.15 K

{"smiles": "Nc1cccc(N)n1", "solubility (mole fraction)": 0.123}

###

conditions: in o-xylene, 297.55 K
measured_quantity: solubility (mole fraction)

{"smiles": "Nc1cccc(N)n1", "observed_value": 0.00351}

###

settings: in ethylbenzene, 326.15 K
measured_quantity: solubility (mole fraction)

{"smiles": "Nc1cccc(N)n1", "observed_value": 0.00164}

###

settings: in ethylbenzene, 302.25 K
measured_quantity: solubility (mole fraction)

{"smiles": "Nc1cccc(N)n1", "measured_quantity": "solubility (mole fraction)", "observed_value": 0.00069}

###

conditions: in methanol, 278.05 K
measured_quantity: solubility (mole fraction)

{"smiles": "Nc1cccc(N)n1", "observed_value": 0.0888}

###

settings: in isopropanol, 274.15 K

{"smiles": "Nc1cccc(N)n1", "solubility (mole fraction)": 0.0302}

###

conditions: in isopropanol, 269.95 K
measured_quantity: solubility (mole fraction)

{"smiles": "Nc1cccc(N)n1", "observed_value": 0.028}

###

conditions: in ethylbenzene, 273.25 K

{"smiles": "Nc1cccc(N)n1", "solubility (mole fraction)": 0.00022}

###

details: in o-xylene, 346.25 K

{"smiles": "Nc1cccc(N)n1", "solubility (mole fraction)": 0.0194}

###

conditions: in ethylbenzene, 357.05 K

{"smiles": "Nc1cccc(N)n1", "solubility (mole fraction)": 0.00474}

###

settings: in ethylbenzene, 333.35 K

{"smiles": "Nc1cccc(N)n1", "solubility (mole fraction)": 0.00212}

###

conditions: in ethylbenzene, 305.35 K
measured_quantity: solubility (mole fraction)

{"smiles": "Nc1cccc(N)n1", "observed_value": 0.00086}

###

conditions: in o-xylene, 361.25 K
measured_quantity: solubility (mole fraction)

{"smiles": "Nc1cccc(N)n1", "observed_value": 0.0367}

###

conditions: in o-xylene, 305.35 K
measured_quantity: solubility (mole fraction)

{"smiles": "Nc1cccc(N)n1", "measured_quantity": "solubility (mole fraction)", "observed_value": 0.00469}

###

details: in o-xylene, 336.95 K

{"smiles": "Nc1cccc(N)n1", "solubility (mole fraction)": 0.0144}

###

details: in ethanol, 312.05 K

{"smiles": "Nc1cccc(N)n1", "solubility (mole fraction)": 0.282}

###

details: in ethylbenzene, 309.55 K

{"smiles": "Nc1cccc(N)n1", "solubility (mole fraction)": 0.0009}

###

details: in toluene, 297.55 K

{"smiles": "Nc1cccc(N)n1", "solubility (mole fraction)": 0.00417}

###

settings: in ethanol, 304.55 K
measured_quantity: solubility (mole fraction)

{"smiles": "Nc1cccc(N)n1", "observed_value": 0.236}

###

details: in toluene, 329.45 K
measured_quantity: solubility (mole fraction)

{"smiles": "Nc1cccc(N)n1", "measured_quantity": "solubility (mole fraction)", "observed_value": 0.0127}

###

settings: in toluene, 333.35 K
measured_quantity: solubility (mole fraction)

{"smiles": "Nc1cccc(N)n1", "measured_quantity": "solubility (mole fraction)", "observed_value": 0.0162}

###

conditions: in methanol, 274.15 K

{"smiles": "Nc1cccc(N)n1", "solubility (mole fraction)": 0.0779}

###

conditions: in o-xylene, 309.55 K

{"smiles": "Nc1cccc(N)n1", "solubility (mole fraction)": 0.00517}

###

details: in ethanol, 277.45 K
measured_quantity: solubility (mole fraction)

{"smiles": "Nc1cccc(N)n1", "measured_quantity": "solubility (mole fraction)", "observed_value": 0.108}

###

settings: in ethylbenzene, 341.05 K

{"smiles": "Nc1cccc(N)n1", "solubility (mole fraction)": 0.00288}

###

details: in isopropanol, 305.15 K

{"smiles": "Nc1cccc(N)n1", "solubility (mole fraction)": 0.0976}

###

settings: in o-xylene, 289.45 K

{"smiles": "Nc1cccc(N)n1", "solubility (mole fraction)": 0.00252}

###

conditions: in o-xylene, 277.15 K

{"smiles": "Nc1cccc(N)n1", "solubility (mole fraction)": 0.0014}

###

conditions: in ethanol, 301.15 K
measured_quantity: solubility (mole fraction)

{"smiles": "Nc1cccc(N)n1", "measured_quantity": "solubility (mole fraction)", "observed_value": 0.226}

###

settings: in methanol, 297.15 K

{"smiles": "Nc1cccc(N)n1", "solubility (mole fraction)": 0.15}

###

details: in ethanol, 274.15 K

{"smiles": "Nc1cccc(N)n1", "solubility (mole fraction)": 0.0992}

###

settings: in isopropanol, 308.25 K

{"smiles": "Nc1cccc(N)n1", "solubility (mole fraction)": 0.114}

###

conditions: in methanol, 301.15 K

{"smiles": "Nc1cccc(N)n1", "solubility (mole fraction)": 0.165}

###

conditions: in toluene, 273.25 K
measured_quantity: solubility (mole fraction)

{"smiles": "Nc1cccc(N)n1", "observed_value": 0.00149}

###

conditions: in ethylbenzene, 349.55 K
measured_quantity: solubility (mole fraction)

{"smiles": "Nc1cccc(N)n1", "observed_value": 0.00385}

###

conditions: in ethanol, 297.15 K
measured_quantity: solubility (mole fraction)

{"smiles": "Nc1cccc(N)n1", "observed_value": 0.204}

###

settings: in ethylbenzene, 277.15 K
measured_quantity: solubility (mole fraction)

{"smiles": "Nc1cccc(N)n1", "observed_value": 0.00026}

###

conditions: in isopropanol, 277.55 K
measured_quantity: solubility (mole fraction)

{"smiles": "Nc1cccc(N)n1", "observed_value": 0.0379}

###

settings: in toluene, 309.55 K

{"smiles": "Nc1cccc(N)n1", "solubility (mole fraction)": 0.00704}

###

conditions: in methanol, 281.15 K

{"smiles": "Nc1cccc(N)n1", "solubility (mole fraction)": 0.0933}

###

details: in isopropanol, 311.15 K

{"smiles": "Nc1cccc(N)n1", "solubility (mole fraction)": 0.12}

###

conditions: in toluene, 277.15 K
measured_quantity: solubility (mole fraction)

{"smiles": "Nc1cccc(N)n1", "observed_value": 0.00191}

###

settings: in ethylbenzene, 293.05 K

{"smiles": "Nc1cccc(N)n1", "solubility (mole fraction)": 0.00049}

###

conditions: in methanol, 266.15 K
measured_quantity: solubility (mole fraction)

{"smiles": "Nc1cccc(N)n1", "observed_value": 0.0598}

###

details: in toluene, 321.25 K

{"smiles": "Nc1cccc(N)n1", "solubility (mole fraction)": 0.00942}

###

details: in o-xylene, 282.25 K
measured_quantity: solubility (mole fraction)

{"smiles": "Nc1cccc(N)n1", "measured_quantity": "solubility (mole fraction)", "observed_value": 0.00185}

###

details: in toluene, 349.55 K
measured_quantity: solubility (mole fraction)

{"smiles": "Nc1cccc(N)n1", "measured_quantity": "solubility (mole fraction)", "observed_value": 0.0277}
